molecular target: human LAG3 expressed on cells (human) (UniProt P18627); assay: cell-based or functional assay
Sequence (P18627 23-525): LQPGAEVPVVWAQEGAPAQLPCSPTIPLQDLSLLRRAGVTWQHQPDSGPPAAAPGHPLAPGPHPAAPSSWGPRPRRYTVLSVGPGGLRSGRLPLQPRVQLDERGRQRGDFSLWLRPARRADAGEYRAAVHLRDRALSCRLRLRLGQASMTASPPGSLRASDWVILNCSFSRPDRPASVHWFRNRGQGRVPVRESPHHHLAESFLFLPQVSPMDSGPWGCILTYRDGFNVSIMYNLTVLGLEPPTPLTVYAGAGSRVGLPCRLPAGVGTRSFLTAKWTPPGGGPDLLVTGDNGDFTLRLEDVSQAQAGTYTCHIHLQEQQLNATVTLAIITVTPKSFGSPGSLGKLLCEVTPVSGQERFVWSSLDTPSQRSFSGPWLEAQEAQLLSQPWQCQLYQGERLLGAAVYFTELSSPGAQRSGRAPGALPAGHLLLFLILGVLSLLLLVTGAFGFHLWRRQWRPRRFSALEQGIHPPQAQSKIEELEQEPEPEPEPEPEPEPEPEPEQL
Outcome measure: IL-2, % of BMS, at 0.003048316 ug/mL (%)

{"columns": ["Binder", "Observed"],
 "data": [
  ["sdAb fusion 25-17-3 (Fc fusion, not shown: a dimerising Fc or GST) QLQLVESGGGLVQAGGSLRLSCAASGSIESFSFMGWYRQAPGKQRELVAGFTGAASLSFSTYTDAVKGRFTISRDNAKNTVYLQMNSLKPEDTAVYFCNVDPWSQSWPGRYWGQGTQVTVSSGGGGSGGGGSGGGGSQLQLVESGGGLVQPGGSLRLSCAASGLTLDGYAIGWFRQAPGKEREGLACISGSDGSTHYLDSVKGRFTISRDNGKNTMALQMNSLQFGDTAIYYCAARRGSCSGSWTYWGQGTQVTVSSEPKSCDKTHTCPPCPAPELLG", 5.71],
  ["sdAb fusion 25-17-2 (Fc fusion, not shown: a dimerising Fc or GST) QLQLVESGGGLVQAGGSLRLSCAASGSIESFSFMGWYRQAPGKQRELVAGFTGAASLSFSTYTDAVKGRFTISRDNAKNTVYLQMNSLKPEDTAVYFCNVDPWSQSWPGRYWGQGTQVTVSSGGGGSGGGGSQLQLVESGGGLVQPGGSLRLSCAASGLTLDGYAIGWFRQAPGKEREGLACISGSDGSTHYLDSVKGRFTISRDNGKNTMALQMNSLQFGDTAIYYCAARRGSCSGSWTYWGQGTQVTVSSEPKSCDKTHTCPPCPAPELLG", -2.52]
]}
